- method-summary: qHTS of pediatric cancer cell lines to identify multiple opportunities for drug repurposing: Confirmatory screen for SJ-GBM2 cells (AID 1347116);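 note: 48 hour compound exposure; nearly all actives have a fitted effect of over 60% in size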
- assay-setup: SJ-GBM2 glioblastoma cells, viability; series mostly up to 45.9 µM
Results filed as inconclusive are left out. The source made the active and inactive calls. Calls come from the whole dose curve; as a rule, active = well fitted cell-killing curve with a large enough effect; inconclusive = small, poorly fitted or top-dose-only effect, or effect the other way; inactive = no such curve, though single readings can be large or run the other way.
# output must be one of t for active, f for inactive

>  <molecule>
Cc1cc(CS(=O)(=O)c2ccccc2)cc(OCc2ccc(CN3CCC[C@H]3CO)cc2)c1

>  <answer-label>
f

$$$$
>  <molecule>
COC(=O)[C@H](c1ccccc1Cl)N1CCc2sccc2C1

>  <answer-label>
f

$$$$
>  <molecule>
Nc1ccc(-c2ccc3ncc4ccc(=O)n(-c5cccc(C(F)(F)F)c5)c4c3c2)cn1

>  <answer-label>
t

$$$$
>  <molecule>
C[C@@H]1O[C@@H](O[C@H]2CC[C@@]3(C)[C@H](CC[C@@H]4[C@H]3C[C@@H](O)[C@]3(C)[C@@H](C5=CC(=O)OC5)CC[C@]43O)C2)C[C@H](O)[C@@H]1O[C@H]1C[C@H](O)[C@H](O[C@H]2C[C@H](O)[C@@H](O)[C@@H](C)O2)[C@H](C)O1 (stereo in doubt)

>  <answer-label>
t

$$$$
>  <molecule>
O=C(c1ccc(F)c(F)c1Nc1ccc(I)cc1F)N1CC(O)([C@H]2CCCCN2)C1

>  <answer-label>
f

$$$$

Hello, I am checking results. What call was entered for CCNC(=O)c1noc(-c2cc(C(C)C)c(O)cc2O)c1-c1ccc(CN2CCOCC2)cc1 ?
t

Hello, I am checking results. What call was entered for COC1CCC(C(=O)c2ccc3nc4c(cc3c2)CCCO4)CC1 (stereo not drawn) ?
f

Hello, I am checking results. What call was entered for FC(F)(F)c1ccc(C=Cc2nc(COc3ccc(CCCCn4ccnn4)cc3)co2)cc1 ?
f

###

- method-summary: qHTS of pediatric cancer cell lines to identify multiple opportunities for drug repurposing: Primary screen for NB-EBc1 cells (AID 1347095)
- assay-setup: NB-EBc1 neuroblastoma viability, CellTiter-Glo luminescence, 48 h; series mostly up to 46 µM
Records with an inconclusive call do not appear. The source made the active and inactive calls. Calls follow the shape of the dose curve; as a rule, active = well fitted cell-killing curve with a large enough effect; inconclusive = small, poorly fitted or top-dose-only effect; inactive = no such curve, though single readings can be large or run the other way.
# output must be one of 1.0 = active, 0.0 = inactive

Past entries and their recorded results:
>  <compound>
COc1cc(Cl)cn2c(-c3cccc(NC4CNC4)n3)cnc12

>  <answer-label>
1.0

$$$$
>  <compound>
C[C@]12CC[C@@H]3c4ccc(O)cc4CC[C@H]3[C@H]1[C@@H](O)[C@@H](O)[C@H]2O

>  <answer-label>
0.0

$$$$
>  <compound>
OC(c1cc(C(F)(F)F)nc2c(C(F)(F)F)cccc12)C1CCCCN1 (stereo unspecified)

>  <answer-label>
0.0

$$$$
>  <compound>
CCC(=O)NCC[C@@H]1CCc2ccc3c(c21)CCO3

>  <answer-label>
0.0

$$$$
>  <compound>
CCCCC[C@H](O)C=C[C@H]1[C@H](O)CC(=O)[C@H]1CCCCCCC(=O)O

>  <answer-label>
0.0

$$$$

Hello, I am checking results. What call was entered for CN[C@@H]1[C@@H](O)[C@@H](O[C@@H]2[C@@H](O)[C@H](O[C@H]3O[C@H](CN)[C@@H](O)[C@H](O)[C@@H]3O)[C@@H](N)C[C@@H]2NC(=O)[C@@H](O)CN)OC[C@]1(C)O ?
0.0

Hello, I am checking results. What call was entered for CNC(=O)[C@H](Cc1ccccc1)NC(=O)[C@H](CC(C)C)[C@H](CSc1cccs1)C(=O)NO ?
0.0

###

- method-summary: Quantitative High-Throughput drug screen in 47 multiple myeloma cell lines against the NCATS MIPE library collection: ARP1_JJKsccF8 cell viability assay (AID 1918928; note: nearly all actives have a fitted effect of over 40% in size;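 for viability: 100% = DMSO only wells and 0% = medium only wells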)
- assay-setup: ARP1 myeloma cells viability, CellTiter-Glo ATP, 48 h; series mostly up to 45.8 µM
Results filed as inconclusive are left out. Activity calls are given as the source filed them. Calls come from the whole dose curve; as a rule, active = well fitted cell-killing curve with a large enough effect; inconclusive = small, poorly fitted or top-dose-only effect, or effect the other way; inactive = no such curve, though single readings can be large or run the other way.
# output must be one of active, inactive

>  <compound>
Cc1ccc(NC(=O)c2ccc(CN3CCN(C)CC3)cc2)cc1Nc1nc(-c2cccnc2)cs1

>  <answer-label>
active

$$$$
>  <compound>
CN1CC(=O)N2C(Cc3c([nH]c4ccccc34)[C@H]2c2ccc3c(c2)OCO3)C1=O (stereo not given in full)

>  <answer-label>
inactive

$$$$
>  <compound>
CSc1cccc(Nc2ncc3cc(-c4c(Cl)cccc4Cl)c(=O)n(C)c3n2)c1

>  <answer-label>
active

$$$$
>  <compound>
O=C1C(CCC(O)c2ccc(F)cc2)C(c2ccc(O)cc2)N1c1ccc(F)cc1 (stereo not given)

>  <answer-label>
inactive

$$$$
>  <compound>
Cc1ccc(C(=O)N(CCCN)[C@@H](c2nc3cc(Cl)ccc3c(=O)n2Cc2ccccc2)C(C)C)cc1

>  <answer-label>
inactive

$$$$

Hello, I am checking results. What call was entered for NS(=O)(=O)c1cc(Cl)c(Cl)c(S(N)(=O)=O)c1 ?
active

Hello, I am checking results. What call was entered for CCN1CCN(c2ccc(Nc3cc(N(C)C(=O)Nc4c(Cl)c(OC)cc(OC)c4Cl)ncn3)cc2)CC1 ?
inactive

Hello, I am checking results. What call was entered for CCC(c1ccc(O)cc1)C(CC)c1ccc(O)cc1 (stereo not given) ?
active

Hello, I am checking results. What call was entered for CCNC(=O)Nc1ccc(Oc2ncnc(N)c2C=NOC)cc1Cl ?
active

Hello, I am checking results. What call was entered for Nc1nc(Cl)nc2c1ncn2[C@@H]1O[C@H](CO)[C@@H](O)[C@H]1F ?
active

###

- System: HaCat
- method-summary: Cytotoxic Profiling of Annotated Libraries Using Quantitative High-Throughput Screening (AID 1296008); note: % is set by controls: 0 for no effect and ±100 for the full control effect; nearly all actives have a fitted effect of over 60% in size
- assay-setup: Five cell lines viability, CellTiter-Glo ATP luminescence, 48-72 h; hits give low values
Records with an inconclusive call do not appear.
# max response annotations
Supply the numeric figure in %, leaving out any unit text.

Record excerpt, results attached:
>  <compound>
CN(C)CCCNC(=O)c1ccc(-c2cc(O)c3ncccc3c2)cc1

>  <value-observed>
-4.67

$$$$
>  <compound>
CN1C(=O)C[C@H](C(=O)N[C@@H](Cc2cnc[nH]2)C(=O)N2CCC[C@@H]2C(N)=O)NC1=O

>  <value-observed>
-3.47

$$$$
>  <compound>
COC(=O)[C@H](c1ccccc1Cl)N1CCc2sccc2C1

>  <value-observed>
-12

$$$$
>  <compound>
Oc1cc(O)cc(C=Cc2ccc(O)c(O)c2)c1

>  <value-observed>
-2.98

$$$$
>  <compound>
O=C1CN2Cc3c(ccc(Cl)c3Cl)N=C2N1

>  <value-observed>
-28.5

$$$$
>  <compound>
CNC(=O)c1ccc2c(C(=Nc3cccc(CN(C)C)c3)c3ccccc3)c(O)[nH]c2c1

>  <value-observed>
0.629

$$$$

Give the reported max response for this compound. CC(NCCc1ccc(O)cc1)C(O)c1ccc(O)cc1 (centres undefined)
-0.381

Give the reported max response for this compound. CO[C@H]1/C=C\O[C@@]2(C)Oc3c(C)c(O)c4c(O)c(c5c(nc6cc(C)ccn65)c4c3C2=O)NC(=O)C(C)=CC=C[C@H](C)[C@H](O)[C@@H](C)[C@@H](O)[C@@H](C)[C@H](OC(C)=O)[C@H]1C
-2.46

Give the reported max response for this compound. CC1CCN(c2cc(N3CCN(C)CC3)ccc2NC(=O)c2cc(C#N)c[nH]2)CC1
2.9

###

- method-summary: Quantitative High-Throughput drug screen in 47 multiple myeloma cell lines against the NCATS MIPE library collection: KMS12PE_JCRB cell viability assay (AID 1918972); note: nearly all actives have a fitted effect of over 30% in size;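 for viability: 100% = DMSO only wells and 0% = wells with media alone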
- assay-setup: KMS12PE myeloma viability, CellTiter-Glo ATP, 48 h; series mostly up to 45.8 µM
Inconclusive results are not listed. Calls of active or inactive are those of the source. The call rests on the fitted dose curve; in most records, active means well fitted cell-killing curve with a large enough effect; inconclusive means small, poorly fitted or top-dose-only effect, or effect the other way; inactive means no such curve, though single readings can be large or run the other way.
# output must be one of active, inactive

Past entries and their recorded results:
>  <compound>
CNC(=O)[C@H](CC1=CN=C2C=CCC=C12)NC(=O)[C@@H](CC(=O)NO)CC(C)C

>  <answer-label>
active

$$$$
>  <compound>
CO[C@@H]1C(N(C)C(=O)c2ccccc2)C[C@H]2O[C@]1(C)n1c3ccccc3c3c4c(c5c6ccccc6n2c5c31)C(=O)NC4=O (stereo partly specified)

>  <answer-label>
active

$$$$
>  <compound>
Cc1c(-c2cccc3c(CCCOc4cccc5ccccc45)c(C(=O)O)n(Cc4cccnc4)c23)c(COc2ccc(N3CCN([S+](=O)([O-])N(C)C)CC3)cc2)nn1C

>  <answer-label>
inactive

$$$$
>  <compound>
CC[C@H]1OC(=O)[C@H](C)[C@@H](O[C@H]2C[C@@](C)(OC)[C@@H](O)[C@H](C)O2)[C@H](C)[C@@H](O[C@@H]2O[C@H](C)C[C@H](N(C)C)[C@H]2O)[C@](C)(O)C[C@H](C)C(=NOCOCCOC)[C@H](C)[C@@H](O)[C@]1(C)O

>  <answer-label>
inactive

$$$$
>  <compound>
Cc1ccc(NC(=O)Nc2cc(C(F)(F)F)ccc2F)cc1Nc1ccc2c(c1)NC(=O)C2=Cc1ccc[nH]1

>  <answer-label>
active

$$$$

Next item in the queue.
Hello, I am checking results. What call was entered for NC[C@H]1O[C@H](O[C@@H]2[C@@H](O)[C@@H](O[C@H]3O[C@H](CO)[C@@H](O)[C@H](N)[C@@H]3O)[C@H](N)C[C@@H]2N)[C@H](O)[C@@H](O)[C@H]1O ?
inactive

Cited source: PubChem BioAssay (NCATS)
